- system.tested: human recombinant histamine H1 receptor (Homo sapiens)
- Construct: expressed in transfected cells; host or cells: CHO cells
- Sequence (P35367 whole entry): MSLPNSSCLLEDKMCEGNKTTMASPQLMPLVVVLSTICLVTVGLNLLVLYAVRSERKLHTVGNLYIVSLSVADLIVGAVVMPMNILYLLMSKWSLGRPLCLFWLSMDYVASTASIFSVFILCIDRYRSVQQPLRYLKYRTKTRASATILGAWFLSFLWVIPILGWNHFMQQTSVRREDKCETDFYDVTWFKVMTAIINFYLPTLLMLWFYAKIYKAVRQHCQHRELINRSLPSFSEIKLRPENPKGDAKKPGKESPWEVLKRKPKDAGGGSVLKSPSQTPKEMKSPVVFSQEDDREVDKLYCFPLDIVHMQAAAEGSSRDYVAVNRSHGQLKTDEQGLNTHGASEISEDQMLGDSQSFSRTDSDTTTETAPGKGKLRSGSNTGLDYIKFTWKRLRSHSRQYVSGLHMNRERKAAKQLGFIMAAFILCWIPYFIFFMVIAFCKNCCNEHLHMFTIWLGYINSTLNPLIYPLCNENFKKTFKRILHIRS
- measurement.description: Histamine H1 radioligand binding ([3H]Pyrilamine)
- test.parameters: 1 μM; read-out: Binding data (Percentage Inhibition) Histamine Binding (1 μM) H1
Provide the reported inhibition at 1 µM of each item.
Numbers only, in %.

Some compounds with known inhibition at 1 µM results, for comparison:
# compound, unit.of.measurement, test.result
data = [
    ("CCC1c2c(c3cc(Cl)ccc3n2/C=C(\\C)c2cccnc2)CCN1C (stereo not drawn)", "%", 30),
    ("CCC1c2c(c3cc(Cl)ccc3n2/C=C(\\C)c2ccc(F)c(F)c2)CCN1C (stereo not drawn)", "%", 33),
    ("C/C(=C\\n1c2c(c3cc(Cl)ccc31)CCN(C)C2C)c1ccc(Cl)c(Cl)c1 (stereo not drawn)", "%", 50),
    ("CN1CCc2c(n(CC(=O)N3CCCCC3)c3ccc(Cl)cc23)C1", "%", 2),
    ("CN1CCc2c(n(CC(=O)N(C)C)c3ccc(Cl)cc23)C1", "%", 16),
]

Record inhibition at 1 µM per entry; entries follow.
1. C/C(=C\n1c2c(c3cc(C)ccc31)CCN(C)C2)c1ccc(Cl)c(Cl)c1
2. CCC1c2c(c3cc(Cl)ccc3n2/C=C(\C)c2ccc(Cl)c(Cl)c2)CCN1C (stereo not drawn)
3. CN1CCc2c(n(CCN3CCCCC3)c3ccc(Cl)cc23)C1
4. C/C(=C/n1c2c(c3cc(Cl)ccc31)CCN(C)C2C)c1ccccc1F (stereo not drawn)
5. Cc1ccc(CCn2c3c(c4cc(Cl)ccc42)CCN(C)C3C)cn1 (stereo not drawn)
6. C/C(=C/n1c2c(c3cc(C)ccc31)CCN(C)C2C)c1ccc(Cl)cc1Cl (stereo not drawn)
7. Cc1ccc2c(c1)c1c(n2CCC2CCCCC2)CN(C)CC1

OUT:
1. 26
2. 8
3. 56
4. 64
5. 66
6. 20
7. 95
